Experiment: basal RPMI8226 mitochondrial membrane potential changes, profiling panel, cell-based, JC-1 fluorescence, 24 h, 100 nL compound (AID 1169); further: test concentration not given here
Conditions: RPMI8226 myeloma, JC-1 mitochondrial potential fluorescence, higher = more signal
Would you mind labelling by z-score? At or over -0.4 is True, under is False.

>  <molecule>
C=CC[C@]1(C(N)=O)N=C(c2ccc(OCCCO)cc2)O[C@H]1c1ccccc1CN=[N+]=[N-]

>  <class_name>
False

$$$$
>  <molecule>
O=C(CS)NCCCCCNC(=O)[C@H]1C[C@H]2C(=O)N[C@@H](Cc3ccccc3)C(=O)N2[C@H]1c1ccc(O)cc1

>  <class_name>
False

$$$$
>  <molecule>
CCCC=C(CCC)[C@@H](NS(=O)(=O)c1ccc(-c2ccccc2)cc1)c1ccc(C(=O)OC)cc1

>  <class_name>
True

$$$$
>  <molecule>
COC(=O)c1ccc(C#CC(NP(=O)(c2ccccc2)c2ccccc2)c2ccccc2)cc1 (centres undefined)

>  <class_name>
True

$$$$
>  <molecule>
CC[C@@H]1C=C(C(=O)O)[C@H](c2ccccc2)N1S(=O)(=O)c1ccc([N+](=O)[O-])cc1

>  <class_name>
True

$$$$
>  <molecule>
CC(=O)NCCCC[C@@H]1NC(=O)[C@H]2C[C@@H](C(=O)NCCCCCCN(C)C)[C@@H](c3ccc(O)cc3)N2C1=O

>  <class_name>
True

$$$$
>  <molecule>
COCCOC(=O)N1C(=O)[C@@]2(c3cc(C#CC4=CCCCC4)ccc31)[C@H](C(=O)NC[C@H](O)c1ccccc1)[C@H]1C(=O)O[C@H](c3ccccc3)[C@H](c3ccccc3)N1[C@@H]2c1ccccc1OCCO

>  <class_name>
False

$$$$
>  <molecule>
CO[C@]12C=C(Br)[C@@H](C[C@@H]1c1ccccc1)[C@@]1(CO1)C2=O

>  <class_name>
True

$$$$
>  <molecule>
CC(C)N1CC=CC23O[C@@H]4/C=C\CCCOC(=O)C4[C@H]2C(=O)N(CCCCCO)[C@@H]3C1=O (some centres undefined)

>  <class_name>
True

$$$$
>  <molecule>
COC(=O)[C@@]1(Cc2ccccc2)[C@H]2c3cc(C(=O)N4CCCC4)n(CCN4CNCC4=O)c3C[C@H]2CN1C(=O)c1ccccc1

>  <class_name>
True

$$$$
>  <molecule>
CC(c1ccccc1)C(O)C1C=CC2C(=O)N(C)C(=O)C2N1N(c1ccccc1)c1ccccc1 (centres undefined)

>  <class_name>
True

$$$$
>  <molecule>
CCCC=C(CCC)[C@@H](NS(=O)(=O)c1ccc(C(F)(F)F)cc1)c1ccc(-c2ccccc2)cc1

>  <class_name>
True

$$$$
>  <molecule>
Cc1ccc(N2C(=O)c3ccccc3[C@@H](C(=O)NCc3ccccc3)[C@@H]2c2ccc(CO)cc2)nc1

>  <class_name>
True

$$$$
>  <molecule>
CCOC(=O)C[C@H]1[C@H](OC(=O)c2cc3ccccc3oc2=O)[C@@H](NC(=O)c2ccc3ccccc3c2)c2cc(OCCCO)ccc2N1C(=O)c1ccc2ccccc2n1

>  <class_name>
True

$$$$
>  <molecule>
C[C@@H]1CC[C@H]2C(=O)N3[C@@H](CC[C@@H](C)[C@@H]3c3cccc(N4CCOCC4)c3)C(=O)N2[C@H]1c1cccc(Br)c1

>  <class_name>
False

$$$$
>  <molecule>
O=C1O[C@H](c2ccccc2)[C@H](c2ccccc2)N2[C@H]1[C@@H](C(=O)Nc1nc3ccccc3s1)[C@]1(C(=O)Nc3ccc(C#CC4=CCCCC4)cc31)[C@H]2c1ccccc1OCCO

>  <class_name>
False

$$$$
>  <molecule>
COc1ccc(CCN2C(=O)[C@@]3(c4ccc([N+](=O)[O-])cc4)CC(=O)N(CC45CC6CC(CC(C6)C4)C5)[C@@H]3c3ccc(CO)cc32)cc1

>  <class_name>
True

$$$$
>  <molecule>
COc1cccc([C@@H]2[C@@H](C)CC[C@H]3C(=O)N(C)[C@@H](C(C)C)C(=O)N23)c1

>  <class_name>
True

$$$$
>  <molecule>
COC(=O)[C@H]1[C@@H]2COc3ccccc3[C@H]2N[C@H]1C(=O)OC

>  <class_name>
True

$$$$
>  <molecule>
CCCCO[C@H]1C[C@H]2C(Br)=C[C@@]1(CO)C(=O)[C@]21CO1

>  <class_name>
False

$$$$
>  <molecule>
CCCC=C(CCC)[C@@H](NC(=O)c1ccccc1)c1ccccc1

>  <class_name>
True

$$$$
>  <molecule>
CCOC(=O)C[C@H]1[C@H](OC(=O)Cc2ccc3c(c2)OCO3)[C@@H](NC(=O)CC(C)C)c2cc(OCCCO)ccc2N1C(=O)c1ccccc1

>  <class_name>
True

$$$$
>  <molecule>
CC(C)(C)OC(=O)CC[C@]1(C(=O)N2CCCCC2)N=C(c2ccc(OCCCO)cc2)O[C@H]1c1ccccc1

>  <class_name>
True

$$$$
>  <molecule>
COc1cc(CO)cc(I)c1O[C@H]1C=C(C(=O)NCCO)C[C@@H](N(CC2CCCCC2)C(=O)c2cc3ccccc3oc2=O)[C@@H]1O

>  <class_name>
False

$$$$
>  <molecule>
O=C1O[C@H](c2ccccc2)[C@H](c2ccccc2)N2[C@H]1[C@@H](C(=O)NC[C@H](O)c1ccccc1)[C@]1(C(=O)Nc3ccc(C#CC4=CCCCC4)cc31)[C@H]2c1ccc(OCCO)cc1

>  <class_name>
False

$$$$
>  <molecule>
C=CCC(OC(C)=O)[C@@H]1[C@@H](N(Cc2cc3ccccc3o2)C(=O)c2ccc(C)cc2)c2cc(OCCCO)ccc2N1C(=O)c1ccc2ccccc2n1 (some centres undefined)

>  <class_name>
True

$$$$
>  <molecule>
CO[C@@H]1COC(=O)CC=C[C@H](C)COC(=O)[C@H](Cc2ccccc2)NC(=O)CC=C[C@H]1C

>  <class_name>
True

$$$$
>  <molecule>
C=CC(=O)O[C@@H](Cc1ccccc1)[C@H]1C2C=CCCC=C2CN1Cc1cccc(Cl)c1 (some centres undefined)

>  <class_name>
True

$$$$
>  <molecule>
CCOC(=O)C[C@H]1[C@H](OC(=O)c2cc3ccccc3oc2=O)[C@@H](NC(=O)C2CCCCC2)c2cc(OCCCO)ccc2N1C(=O)c1ccc2ccccc2n1

>  <class_name>
True

$$$$
